test system: Alopecurus myosuroides (ALOMY); assay: Post-emergence herbicidal glasshouse test on Alopecurus myosuroides; assay type: in vivo; conditions: post-emergence; 1000 g/h; evaluated after 13 days
READOUT TYPE: POST Application ALOMY herbicidal damage (five point scale)

Past entries and their recorded results:
Entry under review: CS(=O)(=O)c1cc(C(F)(F)F)ccc1-c1cnn(C2CC2)c(=O)c1O [Compound 2.015] . Reported POST Application ALOMY herbicidal damage (five point scale)?
5 (5=80-100% damage)

Entry under review: CC(C)N(C)S(=O)(=O)c1nc(C(F)(F)F)ccc1-c1cnn(C)c(=O)c1O [Compound 4.017] . Reported POST Application ALOMY herbicidal damage (five point scale)?
5 (5=80-100% damage)

Entry under review: Cn1ncc(-n2ccc(C(F)(F)F)c(-c3cc(F)c(F)c(F)c3)c2=O)c(O)c1=O [Compound 7.017] . Reported POST Application ALOMY herbicidal damage (five point scale)?
5 (5=80-100% damage)

More entries:
Entry under review: Cn1ncc(-n2ccc(C(F)(F)F)c(-c3cncnc3)c2=O)c(O)c1=O [Compound 1.024] . Reported POST Application ALOMY herbicidal damage (five point scale)?
1 (1=0-19% damage)

Entry under review: C=CCn1cccc(-c2cnn(C)c(=O)c2O)c1=O [Compound 9.002] . Reported POST Application ALOMY herbicidal damage (five point scale)?
1 (1=0-19% damage)

Entry under review: C=C(C)c1ccc(-c2cnn(C)c(=O)c2O)c(S(C)(=O)=O)c1 [Compound 1.140] . Reported POST Application ALOMY herbicidal damage (five point scale)?
5 (5=80-100% damage)

Entry under review: COCc1ccc(-c2cnn(C)c(=O)c2O)c(S(C)(=O)=O)c1 [Compound 2.040] . Reported POST Application ALOMY herbicidal damage (five point scale)?
5 (5=80-100% damage)

Entry under review: C=Cc1ccccc1-c1c(C(F)(F)F)ccn(-c2cnn(C)c(=O)c2O)c1=O [Compound 7.034] . Reported POST Application ALOMY herbicidal damage (five point scale)?
1 (1=0-19% damage)

Entry under review: Cn1ncc(-c2c(F)cnc(F)c2F)c(O)c1=O [Compound 1.149] . Reported POST Application ALOMY herbicidal damage (five point scale)?
2 (2=20-39% damage)
